# Test system: HepG2
# RUN DESCRIPTION: Cytotoxicity against human HepG2 cells after 48 hrs by MTT assay
# Type: functional, cell-based
# CONDITION DESCRIPTION: HepG2, 48 h
OBSERVED PROPERTY: IC50

Item: FC(F)=C(F)CCSc1ncc(-c2ccncc2)s1 | IC50: > 120 µM

Item: [O-][S+](CCC(F)(Cl)C(F)(F)Cl)c1nc2ccc(Cl)cc2s1 (configuration not stated) | IC50: 6.9 µM

Item: [O-][S+](CCC(F)=C(F)F)c1nc2ccccc2o1 (configuration not stated) | IC50: 5.6 µM

Item: FC(F)=C(F)CCSc1ncc(Cl)s1 | IC50: > 120 µM

Item: O=S(=O)(CCC(F)=C(F)F)c1nc2ccc(OC(F)F)cc2[nH]1 | IC50: > 120 µM

Item: Cn1c(SCCC(F)=C(F)F)nc(-c2ccncc2)cc1=O | IC50: > 120 µM

Item: FC(F)(Cl)C(F)(Cl)CCSc1nc2ccc(Cl)cc2s1 (configuration not stated) | IC50: > 120 µM

Item: O=S(=O)(CCC(F)(Cl)C(F)(F)Cl)c1nc2ccc(Cl)cc2s1 (configuration not stated) | IC50: 6.1 µM

Item: FC(F)(Cl)C(F)(Cl)CCSc1nc2ccccc2s1 (configuration not stated) | IC50: > 120 µM

Item: O=S(=O)(CCC(F)=C(F)F)c1nc2ccccc2s1 | IC50: 3.71 µM

Item: N#CC(C#N)(CCC(F)=C(F)F)Cc1nccs1 | IC50: > 120 µM

Item: CC(=C(C#N)C#N)c1nccs1 | IC50: 105 µM

Item: O=S(=O)(CCC(F)=C(F)F)c1nccs1 | IC50: > 120 µM

Item: [O-][S+](CCC(F)=C(F)F)c1nccs1 (configuration not stated) | IC50: > 120 µM

Item: c1ccc2sc(SN(C3CCCCC3)C3CCCCC3)nc2c1 | IC50: > 120 µM

Item: [O-][S+](CCC(F)(Cl)C(F)(F)Cl)c1nc2ccccc2s1 (configuration not stated) | IC50: 13.5 µM

Item: CC(c1nccs1)C(C#N)(C#N)CCC(F)=C(F)F (configuration not stated) | IC50: > 120 µM

Item: FC(F)=C(F)CCSc1nc2ccccc2[nH]1 | IC50: > 120 µM

Item: N#CC(C#N)=Cc1nccs1 | IC50: > 120 µM

Item: O=S(=O)(CCC(F)(Cl)C(F)(F)Cl)c1nc2ccccc2s1 (configuration not stated) | IC50: 4.5 µM

Item: O=S(=O)(CCC(F)=C(F)F)c1ccccn1 | IC50: > 120 µM

Item: FC(F)=C(F)CCSc1nc2ccc(OC(F)F)cc2[nH]1 | IC50: > 120 µM

Item: [O-][S+](CCC(F)=C(F)F)c1nc2ccccc2s1 (configuration not stated) | IC50: 4.7 µM

Item: FC(F)=C(F)CCSc1nnc(S)s1 | IC50: > 120 µM

Item: [O-][S+](CCC(F)=C(F)F)c1nc2ccccc2[nH]1 (configuration not stated) | IC50: > 120 µM

Item: FC(F)=C(F)CCSc1nccs1 | IC50: > 120 µM

Item: O=S(=O)(CCC(F)=C(F)F)c1nc2ccccc2[nH]1 | IC50: > 120 µM

* * *

# Tested on: MCF7
# RUN DESCRIPTION: Cytotoxicity against human MCF7 cells after 48 hrs by MTT assay
# Format: functional, cell-based
# CONDITION DESCRIPTION: MCF7, 48 h
pIC50: −log10 of the molar value.
Assignment: determine reported pIC50 for the given compounds.

Item: FC(F)=C(F)CCSc1nc2ccccc2s1 | pIC50: < 3.92

Item: c1ccc2sc(SN(C3CCCCC3)C3CCCCC3)nc2c1 | pIC50: < 3.92

Item: O=S(=O)(CCC(F)(Cl)C(F)(F)Cl)c1nc2ccccc2s1 (stereo unspecified) | pIC50: 5.00

Item: O=S(=O)(CCC(F)=C(F)F)c1nccs1 | pIC50: < 3.92

Item: [O-][S+](CCC(F)=C(F)F)c1nc2ccccc2o1 (stereo unspecified) | pIC50: 5.35

Item: FC(F)=C(F)CCSc1ncc(Cl)s1 | pIC50: < 3.92

Item: O=S(=O)(CCC(F)=C(F)F)c1ccccn1 | pIC50: < 3.92

Item: [O-][S+](CCC(F)(Cl)C(F)(F)Cl)c1nc2ccc(Cl)cc2s1 (stereo unspecified) | pIC50: 4.91

Item: FC(F)=C(F)CCSc1nc2ccccc2o1 | pIC50: < 3.92

Item: O=S(=O)(CCC(F)=C(F)F)c1ncc(-c2ccncc2)s1 | pIC50: < 3.92

Item: Cn1c(SCCC(F)=C(F)F)nc(-c2ccncc2)cc1=O | pIC50: < 3.92

Item: FC(F)=C(F)CCSc1nccs1 | pIC50: < 3.92

Item: O=S(=O)(CCC(F)=C(F)F)c1nc2ccccc2s1 | pIC50: 5.14

Item: CC(=O)O[C@H]1C(=O)[C@@]2(C)[C@H]([C@H](OC(=O)c3ccccc3)[C@]3(O)C[C@H](OC(=O)[C@H](O)[C@@H](NC(=O)c4ccccc4)c4ccccc4)C(C)=C1C3(C)C)[C@]1(OC(C)=O)CO[C@@H]1C[C@@H]2O | pIC50: 7.49

Item: CC(C)(c1nccs1)C(C#N)C#N | pIC50: < 3.92

Item: N#CC(C#N)Cc1nccs1 | pIC50: < 3.92

Item: N#CC(C#N)=Cc1nccs1 | pIC50: < 3.92

Item: FC(F)(Cl)C(F)(Cl)CCSc1nc2ccc(Cl)cc2s1 (stereo unspecified) | pIC50: < 3.92

Item: [O-][S+](CCC(F)=C(F)F)c1nccs1 (stereo unspecified) | pIC50: < 3.92

Item: CC(=C(C#N)C#N)c1nccs1 | pIC50: 3.96

Item: [O-][S+](CCC(F)=C(F)F)c1nc2ccccc2s1 (stereo unspecified) | pIC50: 5.07

Item: CC(c1nccs1)C(C#N)C#N (stereo unspecified) | pIC50: < 3.92

Item: FC(F)=C(F)CCSc1nc2ccc(OC(F)F)cc2[nH]1 | pIC50: < 3.92

Item: [O-][S+](CCC(F)=C(F)F)c1nc2ccccc2[nH]1 (stereo unspecified) | pIC50: < 3.92

Item: FC(F)=C(F)CCSc1nnc(S)s1 | pIC50: < 3.92

Item: FC(F)=C(F)CCSc1ncc(-c2ccncc2)s1 | pIC50: < 3.92
